# Assayed System: Casein kinase I isoform delta (Homo sapiens, UniProt P48730)
# Sequence (P48730 whole entry, looked up, canonical isoform): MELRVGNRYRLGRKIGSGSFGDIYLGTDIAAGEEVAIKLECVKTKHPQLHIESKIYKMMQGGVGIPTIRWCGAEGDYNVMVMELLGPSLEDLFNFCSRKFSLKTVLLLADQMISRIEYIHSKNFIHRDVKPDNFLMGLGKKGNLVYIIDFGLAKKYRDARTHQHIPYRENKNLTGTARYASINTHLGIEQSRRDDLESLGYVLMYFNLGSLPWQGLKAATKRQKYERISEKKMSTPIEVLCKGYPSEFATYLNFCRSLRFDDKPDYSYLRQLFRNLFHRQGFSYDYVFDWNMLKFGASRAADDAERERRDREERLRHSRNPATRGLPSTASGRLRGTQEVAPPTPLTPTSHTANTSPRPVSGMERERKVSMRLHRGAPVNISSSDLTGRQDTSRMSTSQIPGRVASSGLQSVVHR
# Experiment: Inhibition of CSNK1D (unknown origin) at 1 uM using CSNK1D/Ser/Thr 11 peptide incubated for 1 hr by FRET based Z'-LYTE assay relative to untreated control
Returns one of 1 or 0; 1 when inhibition is >= 60%.

1) CNC(=O)c1ccc2[nH]nc(-c3cccc(C(=O)Nc4cc(-c5ccccn5)n[nH]4)c3)c2c1 = 0
2) C[C@@H](NC(=O)c1ccc2[nH]nc(-c3cccc(NS(C)(=O)=O)c3)c2c1)c1ccccc1 = 1
3) Fc1ccc(-c2n[nH]c3ccc(-c4n[nH]c(CN5CCCC5)n4)cc23)cc1 = 0
4) CNC(=O)c1ccc2[nH]nc(-c3cccc(C(=O)NCc4cnc(C)nc4N)c3)c2c1 = 1
5) O=C1CCCN1Cc1nnc(-c2ccc3[nH]nc(-c4ccc(F)cc4)c3c2)[nH]1 = 0
6) CNC(=O)c1ccc2[nH]nc(-c3cccc(C(=O)NCc4cccc5ccccc45)c3)c2c1 = 1
7) CN(C)Cc1n[nH]c(-c2ccc3[nH]nc(-c4cccc(C(=O)Nc5ccc(F)cc5)c4)c3c2)n1 = 1
